Tested on: Estrogen receptor (Homo sapiens)
Sequence (P03372 whole entry): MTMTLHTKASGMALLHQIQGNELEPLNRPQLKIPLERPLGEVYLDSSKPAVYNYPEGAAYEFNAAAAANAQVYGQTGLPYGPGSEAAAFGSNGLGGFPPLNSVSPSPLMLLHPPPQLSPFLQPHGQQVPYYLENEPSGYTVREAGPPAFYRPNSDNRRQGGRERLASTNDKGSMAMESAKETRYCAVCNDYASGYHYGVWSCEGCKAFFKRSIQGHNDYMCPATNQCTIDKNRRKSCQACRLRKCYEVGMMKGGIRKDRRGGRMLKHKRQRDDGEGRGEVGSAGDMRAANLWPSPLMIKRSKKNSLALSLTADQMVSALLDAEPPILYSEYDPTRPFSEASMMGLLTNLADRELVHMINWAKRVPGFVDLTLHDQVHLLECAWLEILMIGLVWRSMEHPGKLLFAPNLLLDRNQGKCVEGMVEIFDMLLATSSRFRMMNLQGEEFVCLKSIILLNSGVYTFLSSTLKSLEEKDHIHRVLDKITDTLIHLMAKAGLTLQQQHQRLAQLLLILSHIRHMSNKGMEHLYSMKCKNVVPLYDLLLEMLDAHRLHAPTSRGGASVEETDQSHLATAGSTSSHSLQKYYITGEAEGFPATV
Test summary: Binding affinity to estrogen receptor (unknown origin)
Please provide measured pIC50 for the entries that follow.
Answers are plain numbers, as −log10 of the molar value.

Count: 3. Required value per item: pIC50.
1. CC/C(=C(/c1ccc(/C=C/C(=O)O)cc1)c1cc2ccccc2[nH]1)c1ccc(Cl)cc1C(F)(F)F
2. CC/C(=C(/c1ccc(/C=C/C(=O)O)cc1)c1cc2ccccc2[nH]1)c1ccc(Cl)cc1C#N
3. CC/C(=C(/c1ccc(/C=C/C(=O)O)cc1)c1cc2ccccc2[nH]1)c1ccccc1OC(F)(F)F

[9.12, 9.80, 8.62]

###

Tested on: Estrogen receptor (Homo sapiens)
Test summary: Binding affinity to estrogen receptor (unknown origin)
Property name: pIC50
Numbers only, as −log10 of the molar value.

Look over these answered cases.
[[record]]
molecule_smiles = "CC/C(=C(/c1ccc(/C=C/C(=O)O)cc1)c1cc2ccccc2[nH]1)c1cc(Cl)ccc1Cl"
property_name = "pIC50"
reported_result = 8.85

[[record]]
molecule_smiles = "CC/C(=C(/c1ccc(/C=C/C(=O)O)cc1)c1cc2ccccc2[nH]1)c1cccc(C)c1"
property_name = "pIC50"
reported_result = 8.84

[[record]]
molecule_smiles = "CC/C(=C(/c1ccc(/C=C/C(=O)O)cc1)c1cc2ccccc2[nH]1)c1ccccc1C"
property_name = "pIC50"
reported_result = 9.77


I am curious: what pIC50 value has been reported for CC/C(=C(/c1ccc(/C=C/C(=O)O)cc1)c1cc2ccccc2[nH]1)c1ccccc1C#N ?
9.62
